biological target: Cytochrome P450 2C9 (Homo sapiens); experiment: Inhibition of human CYP2C9 incubated for 10 mins before substrate addition by fluorescence assay
Sequence (P11712 whole entry): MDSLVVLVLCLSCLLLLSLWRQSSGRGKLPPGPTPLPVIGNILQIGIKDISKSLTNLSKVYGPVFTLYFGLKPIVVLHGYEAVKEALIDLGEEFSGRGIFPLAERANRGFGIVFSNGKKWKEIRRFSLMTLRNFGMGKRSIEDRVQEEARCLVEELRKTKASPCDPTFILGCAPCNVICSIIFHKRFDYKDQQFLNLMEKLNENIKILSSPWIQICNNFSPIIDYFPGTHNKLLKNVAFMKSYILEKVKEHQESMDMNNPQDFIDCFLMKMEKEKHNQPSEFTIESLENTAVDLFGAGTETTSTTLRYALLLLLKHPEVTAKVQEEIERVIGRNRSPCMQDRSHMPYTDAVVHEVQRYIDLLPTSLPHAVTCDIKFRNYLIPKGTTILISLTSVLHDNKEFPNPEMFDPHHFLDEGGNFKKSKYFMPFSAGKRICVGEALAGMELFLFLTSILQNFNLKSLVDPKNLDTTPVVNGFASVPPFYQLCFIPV
pIC50: −log10 of the molar value.
REPORTED_ENDPOINT: pIC50

// solved cases for pIC50 follow
Cc1nc(C)n(CC23CNCC[C@]2(c2ccc(Cl)c(Cl)c2)C3)n1 (single isomer, unassigned; enantiomer 1)    < 4.60
Cc1ccn(CC23CNCC[C@]2(c2ccc(Cl)c(Cl)c2)C3)n1 (stereo in doubt)    < 5.00
Cc1csc(C23CNCC[C@]2(c2ccc(Cl)c(Cl)c2)C3)n1 (single isomer, unassigned; enantiomer 1)    < 5.22

Continue with the next molecule.
Exercise: Answer with the recorded pIC50 of Cc1ccnn1CC12CNCC[C@]1(c1ccc(Cl)c(Cl)c1)C2 (single isomer, unassigned; enantiomer 2) only.
Key: < 5.00

Provenance of the data: ChEMBL document CHEMBL1817647
